These data points were gathered from patent US20250100993A1.

Molecular target: HSD17B13 (Homo sapiens (Human), UniProt Q7Z5P4)
Sequence (Q7Z5P4 20-300): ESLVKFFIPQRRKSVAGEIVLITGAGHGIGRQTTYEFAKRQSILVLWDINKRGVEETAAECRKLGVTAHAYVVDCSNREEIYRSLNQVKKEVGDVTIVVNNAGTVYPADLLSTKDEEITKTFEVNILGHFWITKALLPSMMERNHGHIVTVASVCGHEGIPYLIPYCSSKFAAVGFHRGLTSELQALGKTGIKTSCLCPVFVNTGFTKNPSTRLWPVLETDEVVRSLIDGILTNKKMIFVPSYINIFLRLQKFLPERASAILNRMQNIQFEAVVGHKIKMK
Assay: LC/MS estrone detection assay for HSD17B13 activity (estradiol to estrone)
Assay type: biochemical
Settings: estradiol substrate, LCMS; read-out: HSD17B13 Inhibition_Estradiol Substrate_LCMS: Ki
Protocol: The liquid chromatography/mass spectrometry (LC/MS) estrone detection assay monitors the conversion of estradiol to estrone by HSD17B13. […] Reactions were incubated for 2 hours at 26.5° C., and estradiol (E2) conversion to estrone (E1) was quantitated by LC-MS/MS based analyte detection for both E2 and E1 using LCMS grade reagents. […]
property.name: Ki

In [3]: df
Out[3]:
                                   compound        result
0  O=C(Nc1sc(-c2ccccc2)nc1C(=O)NCc1ccccc1C(F)(F)F)c1cc(Cl)c(O)c(Cl)c1 [Example 62]       ≤ 50 nM
1  O=C(Nc1sc(C2CC2)nc1C(=O)NCc1ccccc1C(F)(F)F)c1cc(Cl)c(O)c(Cl)n1 [Example 59]       ≤ 50 nM
2  O=C(Nc1sc(-c2cncc(F)c2)nc1C(=O)NCc1ccccc1C(F)(F)F)c1cc(Cl)c(O)c(Cl)n1 [Example 76]       ≤ 50 nM
3  O=C(Nc1sc(-c2cncnc2)nc1C(=O)NCc1ccccc1C(F)(F)F)c1cc(Cl)c(O)c(Cl)n1 [Example 68]  50 to 100 nM
4  O=C(Nc1sc(-c2ccccc2Cl)nc1C(=O)NCc1ccccc1C(F)(F)F)c1cc(Cl)c(O)c(Cl)n1 [Example 67]       ≤ 50 nM
5  O=C(Nc1sc(-c2ccncc2)nc1C(=O)NCc1ccccc1C(F)(F)F)c1cc(Cl)c(O)c(Cl)n1 [Example 70]       ≤ 50 nM

Consider the record given below.
Q. What value of measured Ki is listed for CN1CCC(c2nc(C(=O)NCc3ccccc3C(F)(F)F)c(NC(=O)c3cc(Cl)c(O)c(Cl)c3)s2)CC1 [Example 87] ?
A. 100 to 500 nM

###

biological target: UniProt:Q7Z5P4
Provide the reported IC50 of each item.

These solved cases illustrate the format of a correct answer.
In [3]: df
Out[3]:
                                   compound  assayed_system  property_name         result
0  Cc1nsc(NC(=O)c2cc(Cl)c(O)c(Cl)n2)c1C(=O)NCc1ccccc1C(F)(F)F  UniProt:Q7Z5P4           IC50       ≤ 100 nM
1  O=C(Nc1scnc1C(=O)NCC12CC3CC(CC(C3)C1)C2)c1cc(Cl)c(O)c(Cl)n1  UniProt:Q7Z5P4           IC50  100 to 500 nM

Count: 6. Required value per item: IC50.
1. O=C(Nc1scnc1C(=O)NC1CCOc2ccccc21)c1cc(Cl)c(O)c(Cl)n1 (stereo not shown)
2. Cc1ccc(NC(=O)c2cc(Cl)c(O)c(Cl)c2)c2c(=O)n(Cc3ccccc3C(F)(F)F)nnc12
3. O=C(Nc1ccc(-c2ccccc2)nc1C(=O)NCc1ccccc1OC(F)(F)F)c1cc(Cl)c(O)c(Cl)c1
4. O=C(Nc1nn(-c2ccccc2)cc1C(=O)NCc1ccccc1C(F)(F)F)c1cc(Cl)c(O)c(Cl)c1
5. Cn1c(=O)n(Cc2ccccc2C(F)(F)F)c(=O)c2c(NC(=O)c3cc(Cl)c(O)c(Cl)n3)ccc(F)c21
6. CC(C)CCNC(=O)c1ncsc1NC(=O)c1cc(Cl)c(O)c(Cl)n1

A.
1: 100 to 500 nM; 2: ≤ 100 nM; 3: ≤ 100 nM; 4: ≤ 100 nM; 5: 100 to 500 nM; 6: 100 to 500 nM

###

molecular target: HSD17B13 (Homo sapiens (Human))
pKi: −log10 of the molar value.
For each entry below, report its pKi value.

Would you please look over these solved cases?
>>> print(df.to_string())
                               given_smiles        result
0  N#Cc1cccc(-c2nc(C(=O)NCc3ccccc3C(F)(F)F)c(NC(=O)c3cc(Cl)c(O)c(Cl)c3)s2)c1        ≥ 7.30
1  O=C(Nc1sc(-c2cncc(F)c2)nc1C(=O)NCc1ccccc1C(F)(F)F)c1cc(Cl)c(O)c(Cl)c1        ≥ 7.30
2  CN1CC=C(c2nc(C(=O)NCc3ccccc3C(F)(F)F)c(NC(=O)c3cc(Cl)c(O)c(Cl)n3)s2)CC1  6.30 to 7.00
3  CN1CCC(c2nc(C(=O)NCc3ccccc3C(F)(F)F)c(NC(=O)c3cc(Cl)c(O)c(Cl)n3)s2)CC1  6.30 to 7.00

Now, please, on to the next compound.
Q. Field request: pKi | item: CS(=O)(=O)c1ccccc1-c1nc(C(=O)NCc2ccccc2C(F)(F)F)c(NC(=O)c2cc(Cl)c(O)c(Cl)c2)s1
A. 7.00 to 7.30

###

target: HSD17B14 (Homo sapiens (Human)); experiment: LC/MS estrone detection assay for HSD17B14 activity (estradiol to estrone); type: biochemical; settings: selectivity for HSD17B13 over HSD17B14
Sequence (Q9BPX1 whole entry): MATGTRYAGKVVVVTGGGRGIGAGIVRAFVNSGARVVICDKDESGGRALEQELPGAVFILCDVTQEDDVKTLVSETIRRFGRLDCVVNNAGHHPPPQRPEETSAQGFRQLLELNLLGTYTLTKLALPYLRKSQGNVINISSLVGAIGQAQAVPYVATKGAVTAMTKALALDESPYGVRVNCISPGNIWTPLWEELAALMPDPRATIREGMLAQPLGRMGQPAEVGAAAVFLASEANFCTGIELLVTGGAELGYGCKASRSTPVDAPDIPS
For each of the molecules below, state its HSD17B14 fold selectivity.

In [3]: df
Out[3]:
                                   molecule              property_name     result
0  O=C(Nc1sc(-c2ccccc2F)nc1C(=O)NCc1ccccc1C(F)(F)F)c1cc(F)c(O)c(Cl)c1  HSD17B14 fold selectivity  >855 fold
1  CC(NC(=O)c1nc(-c2ccccc2)sc1NC(=O)c1cc(Cl)c(O)c(Cl)n1)c1ccccc1C(F)(F)F (centres unmarked)  HSD17B14 fold selectivity   253 fold
2  O=C(Nc1sc(-c2ccccc2F)nc1C(=O)NCc1ccccc1C(F)(F)F)c1cc(Cl)c(O)c(Cl)n1  HSD17B14 fold selectivity  >980 fold

The following molecules each have a reported value; give each one's HSD17B14 fold selectivity.
1. O=C(Nc1sc(-c2ccccc2Cl)nc1C(=O)NCc1ccccc1C(F)(F)F)c1cc(F)c(O)c(Cl)c1
2. CN(C)Cc1ccc(F)c(-c2nc(C(=O)NCc3ccccc3C(F)(F)F)c(NC(=O)c3cc(F)c(O)c(Cl)c3)s2)c1
3. O=C(Nc1sc(C2CC2)nc1C(=O)NCc1ccccc1C(F)(F)F)c1cc(Cl)c(O)c(Cl)n1
4. CS(=O)(=O)c1ccccc1-c1nc(C(=O)NCc2ccccc2C(F)(F)F)c(NC(=O)c2cc(Cl)c(O)c(Cl)c2)s1

A.
["688 fold", ">1250 fold", ">331 fold", "76 fold"]

For each listed entry, give its HSD17B14 fold selectivity.
1. O=C(Nc1sc(-c2cnccn2)nc1C(=O)NCc1ccccc1C(F)(F)F)c1cc(Cl)c(O)c(Cl)n1
2. CS(=O)(=O)c1cccc(-c2nc(C(=O)NCc3ccccc3C(F)(F)F)c(NC(=O)c3cc(Cl)c(O)c(Cl)n3)s2)c1
3. O=C(Nc1sc(-c2cccnc2)nc1C(=O)NCc1ccccc1C(F)(F)F)c1cc(Cl)c(O)c(Cl)c1
4. O=C(Nc1sc(N2CCS(=O)(=O)CC2)nc1C(=O)NCc1ccccc1C(F)(F)F)c1cc(Cl)c(O)c(Cl)n1
5. CC(NC(=O)c1nc(-c2cccnc2)sc1NC(=O)c1cc(Cl)c(O)c(Cl)c1)c1ccccc1C(F)(F)F (centres unmarked)
6. O=C(Nc1sc(-c2cnccn2)nc1C(=O)NCc1ccccc1C(F)(F)F)c1cc(Cl)c(O)c(Cl)c1
7. N#Cc1cccc(-c2nc(C(=O)NCc3ccccc3C(F)(F)F)c(NC(=O)c3cc(F)c(O)c(Cl)c3)s2)c1

A.
1. >142 fold
2. 928 fold
3. >397 fold
4. >180 fold
5. >1230 fold
6. >843 fold
7. >2000 fold

###

target: HSD17B13 (Homo sapiens (Human)); assay: LC/MS estrone detection assay for HSD17B13 activity (estradiol to estrone); assay type: biochemical; conditions: estradiol substrate, LC-MS/MS estrone detection
property.name: IC50

# per-item lookup of IC50; items listed below
1. Cc1nc2c(F)ccc(NC(=O)c3cc(Cl)c(O)c(Cl)n3)c2c(=O)n1[C@H]1CC[C@@H]1c1ccccc1
2. Cn1cc(NC(=O)c2cc(Cl)c(O)c(Cl)n2)c(C(=O)NCc2ccccc2OC(F)(F)F)n1
3. Cn1ncc(C(=O)NCc2ccccc2C(F)(F)F)c1NC(=O)c1cc(Cl)c(O)c(Cl)c1

A.
100 to 500 nM
100 to 500 nM
1000 to 10000 nM

Parameters: items (list). Returns: IC50 for each item.
1. CC(C)n1cc(C(=O)NCc2ccccc2C(F)(F)F)c(NC(=O)c2cc(Cl)c(O)c(Cl)n2)n1
2. O=C(Nc1ccc(F)c2nnn(Cc3ccccc3C(F)(F)F)c(=O)c12)c1cc(Cl)c(O)c(Cl)n1

A.
100 to 500 nM
100 to 500 nM
